- Tested on: sheep red blood cell (erythrocytes)
- method: Hemolytic assay (in vitro toxicity)
- experimental context: 100 mg/L; sheep erythrocytes; percent hemolysis
reported endpoint: hemolytic activity at 100 mg/L

NC[C@@H]1O[C@H](O[C@H]2[C@@H](O)[C@H](O[C@@H]3[C@@H](O)[C@H](N)C[C@H](N)[C@H]3O[C@H]3O[C@H](CN)[C@@H](O)[C@H](O)[C@H]3N)O[C@@H]2CO)[C@H](N)[C@@H](O)[C@@H]1O [Neomycin B, reference compound]: <0.3%

Item: CCCCC/C=C\C/C=C\CCCCCCCC(=O)NCC1OC(OC2C(O)C(NC(=N)N)CC(NC(=N)N)C2OC2OC(CNC(=N)N)C(O)C(O)C2NC(=N)N)C(O)C1OC1OC(CNC(=N)N)C(O)C(O)C1NC(=N)N.O=C(O)C(F)(F)F.O=C(O)C(F)(F)F.O=C(O)C(F)(F)F.O=C(O)C(F)(F)F.O=C(O)C(F)(F)F.O=C(O)C(F)(F)F (stereo not shown) | hemolytic activity at 100 mg/L: 1%

Item: CCCCCCCCCCCCCCCC(=O)NCC1OC(OC2C(O)C(NC(=N)N)CC(NC(=N)N)C2OC2OC(CNC(=N)N)C(O)C(O)C2NC(=N)N)C(O)C1OC1OC(CNC(=N)N)C(O)C(O)C1NC(=N)N.O=C(O)C(F)(F)F.O=C(O)C(F)(F)F.O=C(O)C(F)(F)F.O=C(O)C(F)(F)F.O=C(O)C(F)(F)F.O=C(O)C(F)(F)F (stereo not shown) | hemolytic activity at 100 mg/L: 13%

Item: CCCCCCCCCCCCCCCC(=O)NCC1OC(OC2C(NC(=N)N)CC(NC(=N)N)C(OC3OC(CNC(=N)N)C(O)C(O)C3O)C2O)C(O)C(NC(=N)N)C1O.O=C(O)C(F)(F)F.O=C(O)C(F)(F)F.O=C(O)C(F)(F)F.O=C(O)C(F)(F)F (stereo not shown) | hemolytic activity at 100 mg/L: 6.7%

Item: CCCCCCCCCCCCCCCC(=O)NCC1OC(OC2C(N)CC(N)C(OC3OC(CN)C(O)C(O)C3O)C2O)C(O)C(N)C1O.O=C(O)C(F)(F)F.O=C(O)C(F)(F)F.O=C(O)C(F)(F)F.O=C(O)C(F)(F)F (stereo not shown) | hemolytic activity at 100 mg/L: 20%

Item: N=C(N)NCC1OC(OC2C(CNC(=O)CCCc3ccc4ccc5cccc6ccc3c4c56)OC(OC3C(O)C(NC(=N)N)CC(NC(=N)N)C3OC3OC(CNC(=N)N)C(O)C(O)C3NC(=N)N)C2O)C(NC(=N)N)C(O)C1O.O=C(O)C(F)(F)F.O=C(O)C(F)(F)F.O=C(O)C(F)(F)F.O=C(O)C(F)(F)F.O=C(O)C(F)(F)F.O=C(O)C(F)(F)F (stereo not shown) | hemolytic activity at 100 mg/L: 3%

Item: CCCCCCCCCCCCCCCCCCCC(=O)NCC1OC(OC2C(O)C(NC(=N)N)CC(NC(=N)N)C2OC2OC(CNC(=N)N)C(O)C(O)C2NC(=N)N)C(O)C1OC1OC(CNC(=N)N)C(O)C(O)C1NC(=N)N.O=C(O)C(F)(F)F.O=C(O)C(F)(F)F.O=C(O)C(F)(F)F.O=C(O)C(F)(F)F.O=C(O)C(F)(F)F.O=C(O)C(F)(F)F (stereo not shown) | hemolytic activity at 100 mg/L: 82%

Recorded values, source patent US20130053337A1.
